Target: purified human Factor XIa (Homo sapiens)
Construct: purified human Factor XIa; purchased Sekisui Diagnostics
Assay: Factor XIa Assay (fluorogenic substrate Z-Gly-Pro-Arg-AFC)
Assay type: biochemical
Conditions: purified human Factor XIa 40 pM; Z-Gly-Pro-Arg-AFC 100 μM; 50 mM HEPES pH 7.4; read-out: hFXIa Ki (nM), Factor XIa inhibition
experimental.readout: Ki (nM)

Record excerpt, results attached:
molecule: O=C(O)c1ccc(-c2c[nH]c(C3C(c4ccccc4)CCCN3C(=O)/C=C/c3cc(Cl)ccc3-n3cnnn3)n2)cc1 (stereo not shown) [Example 1-45]
units: nM
Ki: 2820
--
molecule: Nc1ccc(C2CCCN(C(=O)/C=C/c3cc(Cl)ccc3-n3cnnn3)C2C(=O)Nc2ccc(C(=O)O)cc2)cc1 (stereo not shown) [Example 1-33]
units: nM
Ki: 46.7
--
molecule: O=C(O)c1ccc(NC(=O)C2C(C3CCCCC3)CCCN2C(=O)/C=C/c2cc(Cl)ccc2-n2cnnn2)cc1 (stereo not shown) [Example 1-5, 2,2,2-trifluoroacetate]
units: nM
Ki: 44

A. COC(=O)Nc1ccc(-c2c[nH]c(C3C(c4ccccc4)CCCN3C(=O)/C=C/c3cc(Cl)ccc3-n3cnnn3)n2)cc1 (stereo not shown) [Example 1-38]
B. NC(=O)c1ccc(C2CCCN(C(=O)/C=C/c3cc(Cl)ccc3-n3cnnn3)C2C(=O)Nc2ccc(C(=O)O)cc2)cc1 (stereo not shown) [Example 1-36]
Incoming: Pick the one with the larger Ki: A vs B In your reply, give the label of the chosen option.
Outgoing: A

A. O=C(Nc1ccc2cn[nH]c2c1)C1C(c2ccccc2)CCCN1C(=O)/C=C/c1cc(Cl)ccc1-n1cnnn1 (stereo not shown) [Example 1-61]
B. O=C(Nc1ccc2[nH]ncc2c1)C1C(c2ccccc2)CCCN1C(=O)/C=C/c1cc(Cl)ccc1-n1cnnn1 (stereo not shown) [Example 1-59]
Incoming: Hey, which is lower on measured Ki, A or B ? In your reply, give the label of the chosen option.
Outgoing: B
(B: 13.9 nM, A: 91.6 nM)

P. O=C(O)c1ccc(NC(=O)C2C(c3ccc(OC(F)(F)F)cc3)CCCN2C(=O)/C=C/c2cc(Cl)ccc2-n2cnnn2)cc1 (stereo not shown) [Example 1-35]
Q. O=C(O)c1ccc(NC(=O)[C@@H]2[C@H](c3ccccc3)CCCN2C(=O)/C=C/c2cc(Cl)ccc2-n2cnnn2)cc1 (racemic) [Example 1-2, 2,2,2-trifluoroacetate]
Incoming: Hey, which is lower on measured Ki, P or Q ? In your reply, give the label of the chosen option.
Outgoing: Q
(Q: 80.9 nM, P: 122 nM)

* * *

Target: purified human Factor XIa (Homo sapiens)
Construct: purified human Factor XIa; purchased Sekisui Diagnostics
Experiment: Factor XIa Assay (fluorogenic substrate Z-Gly-Pro-Arg-AFC)
Type: biochemical
Details: purified human Factor XIa 40 pM; Z-Gly-Pro-Arg-AFC 100 μM; 50 mM HEPES pH 7.4; read-out: hFXIa Ki (nM), Factor XIa inhibition
experimental.readout: Ki (nM)

Record excerpt, results attached:
molecule: O=C(/C=C/c1cc(Cl)ccc1-n1cnnn1)N1CCCC(c2ccccc2)C1c1nc(-c2ccncc2)c[nH]1 (stereo not drawn)
units: nM
Ki: 237
--
molecule: O=C(O)c1cccc(-c2c[nH]c([C@@H]3[C@H](c4ccccc4)CCCN3C(=O)/C=C/c3cc(Cl)ccc3-n3cnnn3)n2)c1 (single isomer, unassigned)
units: nM
Ki: 19.3
--
molecule: O=C(O)c1ccc(NC(=O)C2C(c3ccc(C(F)(F)F)cc3)CCCN2C(=O)/C=C/c2cc(Cl)ccc2-n2cnnn2)cc1 (stereo not drawn)
units: nM
Ki: 218
--
molecule: COC(=O)Nc1ccc(-c2c[nH]c(C3C(c4ccccc4)CCCN3C(=O)/C=C/c3cc(Cl)ccc3-n3cnnn3)n2)c(N)c1 (stereo not drawn)
units: nM
Ki: 103

1. O=C(O)C1CCC(NC(=O)C2C(C3CCCCC3)CCCN2C(=O)/C=C/c2cc(Cl)ccc2-n2cnnn2)CC1 (stereo not drawn) [Example 1-6, 2,2,2-trifluoroacetate]
2. COC(=O)Nc1ccc(-c2c[nH]c(C3C(c4ccccc4)CCCN3C(=O)/C=C/c3cc(Cl)ccc3-n3cnnn3)n2)c(Br)c1 (stereo not drawn)
3. O=C(Nc1ccc2[nH]ncc2c1)[C@@H]1[C@H](c2ccccc2)CCCN1C(=O)/C=C/c1cc(Cl)ccc1-n1cnnn1
4. O=C(O)c1ccc(NC(=O)[C@@H]2[C@H](c3ccccc3)CCCN2C(=O)/C=C/c2cc(Cl)ccc2-n2cnnn2)cc1 (single isomer, unassigned) [Example 1-57]
Incoming: Exam item: list the entries in increasing order of Ki. Use the labels to give the requested order.
Outgoing: 4, 3, 2, 1

a. COC(=O)Nc1ccc(-c2c[nH]c([C@@H]3[C@H](CO[Si](C)(C)C(C)(C)C)CCCN3C(=O)/C=C/c3cc(Cl)ccc3-n3cnnn3)n2)cc1
b. N[C@H]1CCc2cc(C(=O)N3CCCC(c4ccccc4)C3C(=O)Nc3ccc(C(=O)O)cc3)ccc21 (stereo partly drawn)
Incoming: Hey, which is lower on measured Ki, a or b ? In your reply, give the label of the chosen option.
Outgoing: b

* * *

Target: purified human Factor XIa (Homo sapiens, UniProt P03951)
Construct: purified human Factor XIa; purchased Sekisui Diagnostics
Sequence (P03951 388-625 limits assumed): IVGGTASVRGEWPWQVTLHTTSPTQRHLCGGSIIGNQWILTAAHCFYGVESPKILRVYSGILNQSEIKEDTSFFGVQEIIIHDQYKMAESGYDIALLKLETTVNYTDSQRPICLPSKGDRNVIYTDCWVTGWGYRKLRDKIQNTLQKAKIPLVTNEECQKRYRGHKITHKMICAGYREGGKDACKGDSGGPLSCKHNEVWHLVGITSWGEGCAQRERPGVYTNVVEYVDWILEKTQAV
Sequence (P03951 19-387 partner limits assumed): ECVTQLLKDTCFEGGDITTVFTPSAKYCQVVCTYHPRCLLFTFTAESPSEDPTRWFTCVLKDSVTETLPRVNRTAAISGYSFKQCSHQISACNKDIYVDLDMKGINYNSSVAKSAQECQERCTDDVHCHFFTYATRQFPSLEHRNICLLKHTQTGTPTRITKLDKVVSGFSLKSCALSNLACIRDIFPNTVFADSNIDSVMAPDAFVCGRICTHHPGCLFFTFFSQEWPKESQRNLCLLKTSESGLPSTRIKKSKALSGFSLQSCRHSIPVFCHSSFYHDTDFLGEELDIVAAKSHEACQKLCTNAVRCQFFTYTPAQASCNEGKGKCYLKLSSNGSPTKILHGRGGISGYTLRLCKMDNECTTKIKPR
Experiment: Factor XIa Assay (fluorogenic substrate Z-Gly-Pro-Arg-AFC)
Type: biochemical
Details: purified human Factor XIa 40 pM; Z-Gly-Pro-Arg-AFC 100 μM; 50 mM HEPES pH 7.4; read-out: hFXIa Ki (nM), Factor XIa inhibition
experimental.readout: Ki (nM)

A. NCc1ccc(C(=O)N2CCCC(c3ccccc3)C2C(=O)Nc2ccc(C(=O)O)cc2)cc1 (stereo not drawn) [Example 1-20, 2,2,2-trifluoroacetate]
B. O=C(O)c1ccc(NC(=O)[C@H]2[C@@H](c3ccccc3)CCCN2C(=O)/C=C/c2cc(Cl)ccc2-n2cnnn2)cc1
Incoming: Pick the one with the larger Ki: A vs B In your reply, give the label of the chosen option.
Outgoing: B

* * *

Biological target: purified human Factor XIa (Homo sapiens, UniProt P03951)
Construct: purified human Factor XIa; purchased Sekisui Diagnostics
Assay: Factor XIa Assay (fluorogenic substrate Z-Gly-Pro-Arg-AFC)
Format: biochemical
Conditions: purified human Factor XIa 40 pM; Z-Gly-Pro-Arg-AFC 100 μM; 50 mM HEPES pH 7.4; read-out: hFXIa Ki (nM), Factor XIa inhibition
experimental.readout: Ki (nM)

compound: COC(=O)Nc1ccc(-c2c[nH]c(C3C(c4ccccc4)CCCN3C(=O)/C=C/c3cc(Cl)ccc3-n3cnnn3)n2)cc1 (stereo not shown) [Example 1-46]
target: purified human Factor XIa (Homo sapiens, UniProt P03951)
units: nM
val: 65.5

A. O=C(O)c1ccc(NC(=O)C2C(c3ccccc3)CCCN2C(=O)CCc2cc(Cl)ccc2-n2cnnn2)cc1 (stereo not shown)
B. N=C(N)N1CCC(C(=O)N2CCCC(c3ccccc3)C2C(=O)Nc2ccc(C(=O)O)cc2)CC1 (stereo not shown)
C. O=C(/C=C/c1cc(Cl)ccc1-n1cnnn1)N1CCCC(c2ccccc2)C1c1nc(-c2cccnc2)c[nH]1 (stereo not shown) [Example 1-11]
D. O=C(O)c1ccc(NC(=O)C2C(c3cccc(C(F)(F)F)c3)CCCN2C(=O)/C=C/c2cc(Cl)ccc2-n2cnnn2)cc1 (stereo not shown)
Incoming: Exam item: list the entries in increasing order of Ki. Use the labels to give the requested order.
Outgoing: B, A, D, C
(B: 15.4 nM, A: 57.1 nM, D: 2850 nM, C: 8650 nM)

* * *

Target: purified human Factor XIa (Homo sapiens)
Construct: purified human Factor XIa; purchased Sekisui Diagnostics
Test: Factor XIa Assay (fluorogenic substrate Z-Gly-Pro-Arg-AFC)
Assay type: biochemical
Settings: purified human Factor XIa 40 pM; Z-Gly-Pro-Arg-AFC 100 μM; 50 mM HEPES pH 7.4; read-out: hFXIa Ki (nM), Factor XIa inhibition
experimental.readout: Ki (nM)

compound: O=C(/C=C/c1cc(Cl)ccc1-n1cnnn1)N1CCC[C@@H](c2ccccc2)[C@H]1c1nc2cc(F)ccc2[nH]1
units: nM
Ki: 428
--
compound: O=C(/C=C/c1cc(Cl)ccc1-n1cnnn1)N1CCCC(c2ccccc2)C1c1nc(-c2cccnc2)c[nH]1 (stereo not shown) [Example 1-7]
units: nM
Ki: 905
--
compound: NCC1CCC(C(=O)N2CCCC(c3ccccc3)C2C(=O)Nc2ccc(C(=O)O)cc2)CC1 (stereo not shown) [Example 1-49]
units: nM
Ki: 916
--
compound: NCC1CCC(C(=O)N2CCCC(c3ccccc3)C2C(=O)Nc2ccc(C(=O)O)cc2)CC1 (stereo not shown) [Example 1-39, 2,2,2-trifluoroacetate]
units: nM
Ki: 45.6
--
compound: COC(=O)Nc1ccc(-c2nc([C@@H]3[C@H](c4ccccc4)CCCN3C(=O)/C=C/c3cc(Cl)ccc3-n3cnnn3)[nH]c2Cl)cc1
units: nM
Ki: 31.5

1. COC(=O)Nc1ccc(-c2c[nH]c([C@@H]3[C@H](CO)CCCN3C(=O)/C=C/c3cc(Cl)ccc3-n3cnnn3)n2)cc1
2. NCC1CCC(C(=O)N2CCCC(c3ccccc3)C2C(=O)Nc2ccc(C(=O)O)cc2)CC1 (stereo not shown) [Example 1-50]
Incoming: Pick the one with the larger Ki: 1 vs 2 In your reply, give the label of the chosen option.
Outgoing: 1
(1: 2640 nM, 2: 72.8 nM)

a. COC(=O)Nc1ccc(-c2nc(C3C(c4ccccc4)CCCN3C(=O)/C=C/c3cc(Cl)ccc3-n3cnnn3)[nH]c2C)cc1 (stereo not shown)
b. O=C(O)c1cccc(-c2c[nH]c([C@H]3[C@@H](c4ccccc4)CCCN3C(=O)/C=C/c3cc(Cl)ccc3-n3cnnn3)n2)c1 (single isomer, unassigned)
Incoming: Hey, which is lower on measured Ki, a or b ? In your reply, give the label of the chosen option.
Outgoing: a
